Entries and their molar heat capacity at constant pressure
experiment: molar heat capacity at constant pressure; xn = mol fraction of the nth substance listed; details: 343.15 K; 101 kPa; Liquid; Vacuum adiabatic calorimetry; x1 = 0.4
Numbers after ± are expanded uncertainties.

If you can, please state the reported molar heat capacity at constant pressure value of OCCCOCCCO [4-oxa-1,7-heptanediol] + O .
195.5 ± 0.3 J/K/mol

Same read-out for CC(O)CO (centres undefined) [1,2-propanediol] + O ?
137.7 ± 0.3 J/K/mol

What would you report for OCCOCCO [diethylene glycol] + O ?
158.7 ± 0.3 J/K/mol

How about this molecule: OCCOCCOCCO [triethylene glycol] + O
195.2 ± 0.3 J/K/mol

###

As shown below, each of these molecules has a reported molar heat capacity at constant pressure value.
assay: molar heat capacity at constant pressure; details: 323.15 K; 101.33 kPa; Liquid; Vacuum adiabatic calorimetry
Give the number; J/K/mol is assumed, so skip it.

Completed entries (count: 3):
OCCCOCCCO | 341.5
OCCOCCO | 255
OCCOCCOCCO | 343.1

Need molar heat capacity at constant pressure, item CC(O)CO (centres undefined)
201.3

###

Quick list: molar heat capacity at constant pressure per entry.
assay: molar heat capacity at constant pressure; xn = mol fraction of the nth substance listed; conditions: 313.15 K; 101 kPa; Liquid; Vacuum adiabatic calorimetry; x1 = 0.5
Numbers after ± are expanded uncertainties.

In the examples that follow, each entry is paired with its recorded molar heat capacity at constant pressure.
OCCOCCOCCO [triethylene glycol] + O | 213.6 ± 0.3 J/K/mol
CC(O)CO (centres undefined) [1,2-propanediol] + O | 141.9 ± 0.3 J/K/mol
OCCOCCO [diethylene glycol] + O | 169.9 ± 0.3 J/K/mol

So what's the measured molar heat capacity at constant pressure for this one? OCCCOCCCO [4-oxa-1,7-heptanediol] + O
210.9 ± 0.3 J/K/mol

###

test: molar heat capacity at constant pressure; xn = mol fraction of the nth substance listed; conditions: 313.15 K; 101 kPa; Liquid; Vacuum adiabatic calorimetry; x1 = 0.2
QUANTITY: molar heat capacity at constant pressure (J/K/mol)
Report only the number, with the unit J/K/mol understood.

OCCOCCOCCO [triethylene glycol] + O | 131
OCCCOCCCO [4-oxa-1,7-heptanediol] + O | 130.8
OCCOCCO [diethylene glycol] + O | 113.5

Next:
What molar heat capacity at constant pressure value was documented for this molecule, CC(O)CO (centres undefined) [1,2-propanediol] + O ?
103

###

assay: molar heat capacity at constant pressure; xn = mol fraction of the nth substance listed; settings: 353.15 K; 101 kPa; Liquid; Vacuum adiabatic calorimetry; x1 = 0.4
QUANTITY: molar heat capacity at constant pressure (J/K/mol)
Value expressed in J/K/mol; do not type the unit.

// lookup molar heat capacity at constant pressure for OCCCOCCCO [4-oxa-1,7-heptanediol] + O
199.6

###

assay: molar heat capacity at constant pressure; xn = mol fraction of the nth substance listed; conditions: 343.15 K; 101 kPa; Liquid; Vacuum adiabatic calorimetry; x1 = 0.8
QUANTITY: molar heat capacity at constant pressure (J/K/mol)
Write the value in J/K/mol as a bare number.

OCCOCCOCCO [triethylene glycol] + O | 306
OCCOCCO [diethylene glycol] + O | 233.6
OCCCOCCCO [4-oxa-1,7-heptanediol] + O | 302.7

// next entry
Given the compound CC(O)CO (centres undefined) [1,2-propanediol] + O , what is its reported molar heat capacity at constant pressure?
190.6
